Known area under growth-rate inhibition curve of a selection of compounds
# Tested on: SKBR3-P
# assay: area under growth-rate inhibition curve (AUC GRI) (dimensionless (GR-based AUC)); higher = less growth inhibition
# assay-conditions: exposure time: 72 h; concentrations: 0.1, 1, 10 uM
Enter the number alone.

{"compound": "CN(C)CCOc1ccc(/C(=C(/CCCl)c2ccccc2)c2ccccc2)cc1.O=C(O)CC(O)(CC(=O)O)C(=O)O [Toremifene Citrate]", "result": 0.98}
{"compound": "CCOC(=O)c1cncn1C(C)c1ccccc1 (stereo unspecified) [Etomidate]", "result": 0.999}
{"compound": "Cc1ccccc1C(OCCN(C)C)c1ccccc1.O=C(O)CC(O)(CC(=O)O)C(=O)O (stereo unspecified) [Orphenadrine Citrate]", "result": 0.995}
{"compound": "COc1cc2c(cc1OC)C1Cc3ccc(OC)c(OC)c3CN1CC2 (stereo unspecified) [Rotundine]", "result": 0.992}

[Q] Can you look up the measured area under growth-rate inhibition curve of COCCCN1CCC(NC(=O)c2cc(Cl)c(N)c3c2OCC3)CC1 [Prucalopride] for me?
[A] 1.01

[Q] Can you look up the measured area under growth-rate inhibition curve of CCN(Cc1ccncc1)C(=O)C(CO)c1ccccc1 (stereo unspecified) [Tropicamide] for me?
[A] 1.01
